# TARGET_OR_SYSTEM: T1, human PSMA on cells (Cho-hPSMA, CHO-K1 cells overexpressing full-length human PSMA) (human, UniProt Q04609 1-750)
# T1 construct: whole, on cells; also called cell surface PSMA; PSMA-expressing Lncap cells
# T1 sequence (Q04609 whole entry): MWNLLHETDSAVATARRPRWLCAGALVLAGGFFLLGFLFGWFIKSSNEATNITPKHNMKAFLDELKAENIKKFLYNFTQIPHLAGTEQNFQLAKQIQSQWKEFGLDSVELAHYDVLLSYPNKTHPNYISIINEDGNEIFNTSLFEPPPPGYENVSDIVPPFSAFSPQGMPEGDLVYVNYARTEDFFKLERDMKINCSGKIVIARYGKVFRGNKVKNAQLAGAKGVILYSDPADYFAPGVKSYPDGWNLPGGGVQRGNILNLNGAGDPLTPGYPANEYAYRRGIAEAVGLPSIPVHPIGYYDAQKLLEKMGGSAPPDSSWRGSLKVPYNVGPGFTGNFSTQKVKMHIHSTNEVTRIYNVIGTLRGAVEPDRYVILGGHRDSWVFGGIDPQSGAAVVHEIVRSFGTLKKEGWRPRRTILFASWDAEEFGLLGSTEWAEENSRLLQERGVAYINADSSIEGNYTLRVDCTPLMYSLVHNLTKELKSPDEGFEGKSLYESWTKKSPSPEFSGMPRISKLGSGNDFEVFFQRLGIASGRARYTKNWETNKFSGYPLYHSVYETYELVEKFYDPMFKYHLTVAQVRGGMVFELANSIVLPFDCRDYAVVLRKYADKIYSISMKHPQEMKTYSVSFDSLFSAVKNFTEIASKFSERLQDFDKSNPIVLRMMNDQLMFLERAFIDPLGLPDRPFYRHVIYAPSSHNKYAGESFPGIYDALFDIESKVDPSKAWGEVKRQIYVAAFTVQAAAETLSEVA
# MEASUREMENT_PROTOCOL: hybridoma screening on cells
MEASURE_NAME: binding result

Form: binder = murine antibody 19 (antibody, V domains shown, murine hybridoma antibody) VH: EVKLVESEGGLVQPGSSMKLSCTASGFTFSDYYMAWVRQVPERGLEWVANINYDGSSTYYLDSLKSRFIISRDNAKNILYLQMSSLKSEDTATYYCARGGDYWDAMDYWGQGTSVTVSS VL: DIQMTQTTSSLSASLGDRVTISCRASQDISKYLNWYQQKPDGTVKLLIYYTSSLHSGVPSRFSGSGSGTDYSLTISNLEQEDIATYFCQQGNRLPRTFGGGTKLEIK ; binding result = binds

Form: binder = murine antibody 46 (antibody, V domains shown, murine hybridoma antibody) VH: EVQLVESGGDLVKPGGSLKLSCAASGFTFSNYGMSWVRQTPDKRIKWVATIGSGGGYTYYSDSVKGRFTISRDNAKNTLYLQMSSLKSEDTAIYYCVRHPQIGYWGQGTLVTVSA VL: DIVMTQSQKFMSTTVGDRVTITCKASQSVGTAVAWYQQKPGQSPKLLIYSASSRYTGVPDRFTGSGSGTDFTLTITNMQSEDLADYFCHQYSSYPLTFGGGTKLEIK ; binding result = binds

Form: binder = murine antibody 27 (antibody, V domains shown, murine hybridoma antibody) VH: EVKLVESEGGLVQPGSSMKLSCTASGFTFSDYYMAWVRQVPEKGLEWVANINYDGSSTYYLDSLKSRFIISRDNAKNILYLQMSSLKSEDTATYYCARDLDGYYGYFDVWGTGTTVTVSS VL: QIVLTQSPAIMSASPGEKVTISCSASSSVSYMYWYQQKPGSSPKPWIYRTSNLASGVPARFSGSGSGTSYSLTISSMEAEDAATYYCQQYHSYPLTFGAGTKLELK ; binding result = binds
